target: 11-beta-hydroxysteroid dehydrogenase type 2 (Homo sapiens) (UniProt P80365); test: Inhibition of human recombinant 11beta-HSD2 expressed in HEK293 cells assessed as residual conversion of [1,2,6,7-3H]-cortisol to cortisone at 0.2 uM by scintillation counting; type: cell-based
Test readout: Activity (%)

[A] CON(C)C(=O)[C@@]1(C)CC[C@]2(C)CC[C@]3(C)C(=CC(=O)[C@@H]4[C@@]5(C)CC[C@H](OC(C)=O)C(C)(C)[C@@H]5CC[C@]43C)[C@@H]2C1
[B] CC(=O)N[C@H]1CC[C@]2(C)[C@H]3C(=O)C=C4[C@@H]5C[C@@](C)(C(=O)N(C)O)CC[C@]5(C)CC[C@@]4(C)[C@]3(C)CC[C@H]2C1(C)C
IN: Compare A and B by numeric Activity and name the larger one. In your reply, give the label of the chosen option.
OUT: A

* * *

Molecular target: 11-beta-hydroxysteroid dehydrogenase type 2 (Homo sapiens)
Sequence (whole entry): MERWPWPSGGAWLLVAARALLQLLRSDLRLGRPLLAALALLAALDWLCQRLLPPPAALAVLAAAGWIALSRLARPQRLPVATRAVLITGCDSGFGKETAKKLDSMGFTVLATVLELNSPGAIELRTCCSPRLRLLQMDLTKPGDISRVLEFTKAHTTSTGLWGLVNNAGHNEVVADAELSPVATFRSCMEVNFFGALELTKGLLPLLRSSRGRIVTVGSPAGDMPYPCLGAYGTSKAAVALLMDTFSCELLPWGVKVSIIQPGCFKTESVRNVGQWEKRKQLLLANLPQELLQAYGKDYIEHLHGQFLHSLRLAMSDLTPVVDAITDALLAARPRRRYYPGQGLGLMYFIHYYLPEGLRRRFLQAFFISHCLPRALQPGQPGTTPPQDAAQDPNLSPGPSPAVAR
Assay: Inhibition of human recombinant 11beta-HSD2 expressed in HEK293 cells assessed as residual conversion of [1,2,6,7-3H]-cortisol to cortisone at 0.2 uM by scintillation counting
Assay type: cell-based
Test readout: Activity (%)

[P] CN(O)C(=O)[C@@]1(C)CC[C@]2(C)CC[C@]3(C)C(=CC(=O)[C@@H]4[C@@]5(C)CC[C@H](NS(=O)(=O)C(F)(F)F)C(C)(C)[C@@H]5CC[C@]43C)[C@@H]2C1
[Q] CC1(C)[C@H](NS(C)(=O)=O)CC[C@]2(C)[C@H]3C(=O)C=C4[C@@H]5C[C@@](C)(C(=O)O)CC[C@]5(C)CC[C@@]4(C)[C@]3(C)CC[C@@H]12
[R] C=CCONC(=O)[C@@]1(C)CC[C@]2(C)CC[C@]3(C)C(=CC(=O)[C@@H]4[C@@]5(C)CC[C@H](OC(C)=O)C(C)(C)[C@@H]5CC[C@]43C)[C@@H]2C1
IN: Put the items in sequence by Activity, from largest down. Reply: labels, ordered per the request.
OUT: R, P, Q
(R: 84%, P: 44%, Q: 4%)

[1] CC1(C)[C@@H](NS(C)(=O)=O)CC[C@]2(C)[C@H]3C(=O)C=C4[C@@H]5C[C@@](C)(C(=O)O)CC[C@]5(C)CC[C@@]4(C)[C@]3(C)CC[C@@H]12
[2] CC1(C)[C@H](NS(=O)(=O)C(F)(F)F)CC[C@]2(C)[C@H]3C(=O)C=C4[C@@H]5C[C@@](C)(C(=O)O)CC[C@]5(C)CC[C@@]4(C)[C@]3(C)CC[C@@H]12
IN: Compare 1 and 2 by numeric Activity and name the larger one. In your reply, give the label of the chosen option.
OUT: 2
(2: 50%, 1: 4%)
